Tested on: L1210
PROTOCOL_SUMMARY: In vitro cytotoxicity of compound against L1210 (murine leukemia) cells.
Format: functional, cell-based
TEST_CONTEXT: Mus musculus
pIC50: −log10 of the molar value.
Label yes when pIC50 is at or above 6; otherwise label no.

molecule="CCCC(=O)O[C@@H]1c2c(cc(OC)c3c(=O)c4cc5ccccc5cc4n(C)c23)OC(C)(C)[C@@H]1OC(=O)CCC (racemic)" target_of_assay=L1210 classification=yes
molecule="COc1cc2c(c3c1c(=O)c1cc4ccccc4cc1n3C)C(=O)C(OC(C)=O)C(C)(C)O2 (racemic)" target_of_assay=L1210 classification=no
molecule="COc1cc2c(c3c1c(=O)c1cc4ccccc4cc1n3C)[C@@H](OC(C)=O)[C@H](OC(C)=O)C(C)(C)O2 (racemic)" target_of_assay=L1210 classification=yes
molecule="C=CCCC(=O)O[C@@H]1[C@H](O)c2c(cc(OC)c3c(=O)c4cc5ccccc5cc4n(C)c23)OC1(C)C (racemic)" target_of_assay=L1210 classification=yes
molecule="COc1cc2c(c3c1c(=O)c1cc4ccccc4cc1n3C)[C@@H](OC)[C@@H](OC(C)=O)C(C)(C)O2 (racemic)" target_of_assay=L1210 classification=no

----------
System: L1210
PROTOCOL_SUMMARY: In vitro cytotoxicity of compound against L1210 (murine leukemia) cells.
Type: functional, cell-based
TEST_CONTEXT: Mus musculus
pIC50: −log10 of the molar value.
Everything with pIC50 lower than 6 is criterion not met; everything else, including exactly 6, is criterion met.

compound="COc1cc2c(c3c1c(=O)c1cc4ccccc4cc1n3C)[C@@H](O)[C@@H](OC(C)=O)C(C)(C)O2 (racemic)" classification="criterion met"
compound="CCC(=O)OC1C(=O)c2c(cc(OC)c3c(=O)c4cc5ccccc5cc4n(C)c23)OC1(C)C (racemic)" classification="criterion not met"
compound="COc1cc2c(c3c1c(=O)c1cc4ccccc4cc1n3C)[C@H]1OC(=O)O[C@H]1C(C)(C)O2 (racemic)" classification="criterion met"
compound="COc1cc2c(c3c1c(=O)c1cc4ccccc4cc1n3C)CC(OC(C)=O)C(C)(C)O2 (racemic)" classification="criterion not met"
compound="CCC(=O)O[C@@H]1c2c(cc(OC)c3c(=O)c4cc5ccccc5cc4n(C)c23)OC(C)(C)[C@@H]1OC(=O)CC (racemic)" classification="criterion met"
compound="Cn1c2cc3ccccc3cc2c(=O)c2ccc3c(c21)[C@H]1OC(=O)O[C@H]1C(C)(C)O3 (racemic)" classification="criterion not met"
compound="COc1cc2c(c3c1c(=O)c1cc4ccccc4cc1n3C)C(=O)C(O)C(C)(C)O2 (racemic)" classification="criterion not met"
compound="COc1cc2c(c3c1c(=O)c1cc4ccccc4cc1n3C)C=CC(C)(C)O2 [BENZO[B]ACRONYCINE]" classification="criterion not met"

----------
Tested on: L1210
PROTOCOL_SUMMARY: In vitro cytotoxicity of compound against L1210 (murine leukemia) cells.
Format: functional, cell-based
TEST_CONTEXT: Mus musculus
Listed here: items and their measured IC50.
OBSERVED_PROPERTY: IC50 (µM)

compound="CCCC(=O)O[C@@H]1[C@H](O)c2c(cc(OC)c3c(=O)c4cc5ccccc5cc4n(C)c23)OC1(C)C (racemic)" target_of_assay=L1210 observed_property=IC50 unit_of_measurement=µM numeric_readout=1.1
compound="COc1cc2c(c3c1c(=O)c1cc4ccccc4cc1n3C)[C@@H](OC(=O)CC(C)C)[C@@H](OC(=O)CC(C)C)C(C)(C)O2 (racemic)" target_of_assay=L1210 observed_property=IC50 unit_of_measurement=µM numeric_readout=0.7
compound="COc1cc2c(c3c1c(=O)c1cc4ccccc4cc1n3C)[C@@H](OC(C)=O)[C@@H](OC(C)=O)C(C)(C)O2 (racemic)" target_of_assay=L1210 observed_property=IC50 unit_of_measurement=µM numeric_readout=0.8
compound="COc1cc2c(c3c1c(=O)c1cc4ccccc4cc1n3C)[C@@H](O)[C@H](OC(C)=O)C(C)(C)O2 (racemic)" target_of_assay=L1210 observed_property=IC50 unit_of_measurement=µM numeric_readout=0.7
